// composite z-score lookup, one value per entry
Target: Focal adhesion kinase 1 (Homo sapiens)
Assay: small-molecule microarray binders of FAK, primary screen, biochemical, 635/667 nm fluorescence, BSA, DTT (AID 1130);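 also: composite of spot emission at 667 nm and signal to noise over triplicate slides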
Conditions: PTK2 binding, 635 nm fluorescence, higher = more signal

Compound: COc1ccc(CCNC(=O)[C@@H]2c3ccccc3C(=O)N(c3ccc(C)cn3)[C@H]2c2ccc(CO)cc2)cc1
composite z-score: -0.34
//
Compound: COC(=O)CC=C[C@@H](C)[C@H](OC)c1ccccc1Br
composite z-score: -0.0378
//
Compound: CC(C)N1CC=CC23O[C@@H]4C=CCCOC(=O)C4[C@H]2C(=O)N(CCCCCCO)[C@@H]3C1=O (stereo not given in full)
composite z-score: -0.268
//
Compound: CC(C)=NOCc1cccc(-c2cc(-c3ccccc3)no2)c1
composite z-score: 0.882
//
Compound: Cc1ccc(S(=O)(=O)N[C@@H]2COC(=O)[C@H](C)COC(=O)CC=C[C@H]2C)cc1
composite z-score: -0.232

Recorded values, source PubChem BioAssay.
